test system: HEK293T-Rex ERSE-FLuc; test: maximal ERSE-FLuc activation from dose-response fit, relative to thapsigargin (% of thapsigargin); higher = stronger activation; conditions: 18 h
RECORDED ENDPOINT: maximal ERSE-FLuc activation
Please give the numeric answer without any surrounding text.

{"MOLECULE": "CC(C)c1ccc(NC(=O)/C=C/c2ccco2)cc1", "SYSTEM UNDER TEST": "HEK293T-Rex ERSE-FLuc", "RECORDED ENDPOINT": "maximal ERSE-FLuc activation", "NUMBER": 21.5}
{"MOLECULE": "COc1cccc(C(=O)Nc2sc3c(c2C#N)CC(C)CC3)c1 (centres undefined)", "SYSTEM UNDER TEST": "HEK293T-Rex ERSE-FLuc", "RECORDED ENDPOINT": "maximal ERSE-FLuc activation", "NUMBER": 23.5}

Missing value: maximal ERSE-FLuc activation, HEK293T-Rex ERSE-FLuc, entry `N#C/C(=C\c1ccc(O)c(O)c1)C(=O)Nc1ccccc1` . Fill in? 52.2

Would you kindly repeat that for `CN(c1ccccc1)S(=O)(=O)c1cccc(C(=O)NCCc2ccc(O)c(O)c2)c1` ? 202
